measurementNotes: Toxicity liver stage against HepG2, at 10uM
Assay type: cell-based
Parameters: test concentration 10 uM, cell line HepG2-A16-CD81EGFP
protocolConditions: human, HepG2-A16-CD81EGFP cells; read-out: INHIBITION
measuredEndpoint: cytotoxicity at 10 µM (%)
Entry rule: numbers only, all in %.

Before answering, review these 4 worked examples.
1. CCCN(CCC)C(=O)CN1CCCC1C(=O)N(C)C (stereo not given)    7.42
2. O=C(CN1CCOCC1)N1CCC(c2cc(N3CCCC3)ncn2)CC1    3.6
3. Cc1ocnc1C(=O)N[C@H]1CN(CC2CCC2)C[C@@H]1C(C)C    -2.94
4. Fc1cccc(-c2c[nH]c(C3CCCN3)n2)c1 (stereo not given)    -5.93

As a next step, examine the molecule that follows.
Item: Cc1nc(CN2CCN(C(=O)c3scnc3C)CC2)cs1 | cytotoxicity at 10 µM: 0.524

* * *

measurementNotes: Toxicity liver stage against HepG2, at 10uM
Assay type: cell-based
Set-up: test concentration 10 uM, cell line HepG2-A16-CD81EGFP
protocolConditions: human, HepG2-A16-CD81EGFP cells; read-out: INHIBITION
measuredEndpoint: cytotoxicity at 10 µM (%)
Write the answer as a number in %, unit excluded.

1. CCCN(C)C(=O)c1cc(Br)cc(S(=O)(=O)N2CCOCC2)c1F    6.83

Below: the item to evaluate.
Input COCCN1CC[C@@H](OC)[C@@H]1Cc1ccccc1 . Output cytotoxicity at 10 µM: 4.9

* * *

measurementNotes: Toxicity liver stage against HepG2, at 10uM
Format: cell-based
Set-up: test concentration 10 uM, cell line HepG2-A16-CD81EGFP
protocolConditions: human, HepG2-A16-CD81EGFP cells; read-out: INHIBITION
Quick reference for cytotoxicity at 10 µM among some molecules
Field format: number, assumed %, no unit text.

1. CC(C)(C)c1cc(=O)[nH]c(C2(N)CCCCC2)n1    16.5
2. CN(Cc1ccccc1)CC(O)Cn1cnc2ccc(Br)cc2c1=O (stereo not given)    -9.04

Next molecule, please.
So for CN(C)C[C@@H]1CN(C(=O)c2cc(-c3ccccc3)n[nH]2)C[C@@H]1CO , the logged cytotoxicity at 10 µM turned out to be -19.9

* * *

measurementNotes: Toxicity liver stage against HepG2, at 10uM
Assay type: cell-based
Parameters: test concentration 10 uM, cell line HepG2-A16-CD81EGFP
protocolConditions: human, HepG2-A16-CD81EGFP cells; read-out: INHIBITION
Overview of recorded cytotoxicity at 10 µM for various molecules
Give the value in % but do not write % after it.

Some entries whose results are on file:
1) CC(C)N(C)[C@@H]1CCN(Cc2ccco2)[C@H]1Cc1ccccc1    -7.92
2) Nc1nc(CCCNC(=O)C2CCCN(Cc3ccco3)C2)cs1 (stereo not given)    -0.745
3) CC1(C)CN(Cc2csc(CS(C)(=O)=O)n2)Cc2ccccc21    6.38
4) c1ccc(-c2nc(CN3CCCCC3Cn3cncn3)co2)cc1 (stereo not given)    -14.4
5) O=C(C1CC1)N1CC2(CCN(CC3CC3)CC2)c2cc(F)ccc21    0.64
6) CC(CNC1CCN(Cc2ccncc2)CC1)c1ccc(F)cc1F (stereo not given)    -9.73
7) Cc1ccnc(C2(C)CCCN2S(=O)(=O)c2ccccc2)n1 (stereo not given)    0.435
8) CC(C)N(Cc1ccc(C(=O)O)o1)C(C)C    -1.2
9) O=C(c1cncc(NCC2COc3ccccc3C2)n1)N1CCOCC1 (stereo not given)    -3.37
10) Fc1cccc(CN2CCOC3(COCCN(CC4CC4)C3)C2)c1 (stereo not given)    -111

Record summary for Cc1cccc(CC(=O)NCCCOC(C)C)c1 : reported cytotoxicity at 10 µM = -2.25

The molecule listed as c1nc(CCC2CCCN2)cc(N2CCCOCC2)n1 (stereo not given) shows cytotoxicity at 10 µM equal to 3.91

Sample CCc1nc(C2CCCN2C(=O)c2cc[nH]n2)no1 (stereo not given) ; cytotoxicity at 10 µM observed: -15.6

* * *

The molecules listed here are annotated with their cytotoxicity at 10 µM.
measurementNotes: Toxicity liver stage against HepG2, at 10uM
Assay type: cell-based
Set-up: test concentration 10 uM, cell line HepG2-A16-CD81EGFP
protocolConditions: human, HepG2-A16-CD81EGFP cells; read-out: INHIBITION

Worked examples, 8 molecules total:
1. CN(C)CCCNC(=O)c1ccccc1NC(=O)c1ccccc1Cl    -0.986%
2. CCn1ccnc1CN1CCCN(C(=O)c2csc(C)n2)CC1    -2.84%
3. CCc1noc(C(C)N2CCN(c3ccc(C#N)cc3F)CC2)n1 (configuration not stated)    -9.7%
4. O=C(Cc1ccc(O)c(F)c1)N1CCC2(CCNCC2)CC1    -7.43%
5. O=C(NCC1CC1)c1c2c(N3CCCC3)ncnc2n2ccccc12    -61.1%
6. Cc1c(C)n(CC(O)CN2CCC(C)CC2)c2c(Cl)cccc12 (configuration not stated)    -5.12%
7. CCn1ncnc1C(C)NC(=O)CC1CCN(C(C)C)CC1 (configuration not stated)    -133%
8. Cc1nc(Nc2ncccn2)cc(C2CCCN2Cc2ncc[nH]2)n1 (configuration not stated)    -15.3%

Record CCc1nccn1C1CCCN(C(=O)c2ccc3nncn3c2)C1 (configuration not stated) , field cytotoxicity at 10 µM: -12.7%

Per the record, CC1CCCN1Cc1cccc(C(=O)Nc2ccc3c(c2)CCC3=O)c1 (configuration not stated) has cytotoxicity at 10 µM of -30.9%

* * *

measurementNotes: Toxicity liver stage against HepG2, at 10uM
Format: cell-based
Design: test concentration 10 uM, cell line HepG2-A16-CD81EGFP
protocolConditions: human, HepG2-A16-CD81EGFP cells; read-out: INHIBITION
cytotoxicity at 10 µM: recorded values
Write the number in % without appending the unit.

Reported cytotoxicity at 10 µM of CS(=O)(=O)NCc1cc(-c2cc(F)cc(F)c2)nc(N2CCOCC2)n1 : -9.24

* * *

measurementNotes: Toxicity liver stage against HepG2, at 10uM
Assay type: cell-based
Parameters: test concentration 10 uM, cell line HepG2-A16-CD81EGFP
protocolConditions: human, HepG2-A16-CD81EGFP cells; read-out: INHIBITION
The entries below are paired with their reported cytotoxicity at 10 µM.
Use % as the unit, but write only the number.

Record excerpt, results attached:
1) CCc1nccn1C1CCCN(C(=O)c2ccc3[nH]nnc3c2)C1 (stereo not given)    7.15
2) O=C(CCN1CCc2c(ncn2C2CC2)C1)NC1CCCC1    -10.1
3) CC(C)C1CCC(N2CCN(CCCS(C)(=O)=O)CC2)CC1 (stereo not given)    0.803
4) COc1ncccc1CNC1CCc2c(ccc(=O)n2CC2CC2)C1 (stereo not given)    -110
5) CCN(CC1CCOC1)C(=O)Nc1ccc(N2CCOCC2)nc1 (stereo not given)    -2.45

Field cytotoxicity at 10 µM (entry Cc1csc(N2CCN(Cc3cccnc3)CC2C)n1 (stereo not given) ) reads 11.2

# molecule Cc1ccc(CN2C[C@@H]3[C@@H](C(=O)NCC4CC4)CCS(=O)(=O)[C@@H]3C2)cc1 ; its cytotoxicity at 10 µM = -4

For Cc1nc(C2CCCNC2)cc(N(C)CCc2ccccc2)n1 (stereo not given) the molecule record lists cytotoxicity at 10 µM as -1.36

So, c1cnc(Nc2ccc(C3CCCCN3Cc3ccncc3)cn2)nc1 (stereo not given) ? Its cytotoxicity at 10 µM was -1.57

Given item F[C@@H]1CN(CC2CC2)C[C@@H]1OCc1nc2ccccc2o1 , the value recorded as its cytotoxicity at 10 µM is 1.97

* * *

measurementNotes: Toxicity liver stage against HepG2, at 10uM
Type: cell-based
Parameters: test concentration 10 uM, cell line HepG2-A16-CD81EGFP
protocolConditions: human, HepG2-A16-CD81EGFP cells; read-out: INHIBITION
measuredEndpoint: cytotoxicity at 10 µM (%)
Give the value in % but do not write % after it.

For orientation, consider the following solved cases.
1. NC(=O)c1nc(-c2ccc(Cl)cc2Cl)oc1N    2.66
2. COc1ccc(F)cc1C(=O)N1C[C@H]2CC(OC)C[C@H]2C1 (stereo partly specified)    -2.19
3. COCc1nc(NCC2CCS(=O)(=O)C2)c2cnn(C)c2n1 (stereo unspecified)    -5.97

Looking up N#Cc1cc(C#N)c(SCCC(=O)Nc2ccc(F)cc2)nc1N , I see its cytotoxicity at 10 µM listed as 4.89

* * *

measurementNotes: Toxicity liver stage against HepG2, at 10uM
Format: cell-based
Parameters: test concentration 10 uM, cell line HepG2-A16-CD81EGFP
protocolConditions: human, HepG2-A16-CD81EGFP cells; read-out: INHIBITION
measuredEndpoint: cytotoxicity at 10 µM (%)
The figure you give is taken to be in %; do not add the unit.

1) CC(C)Cc1cc(C(=O)NCC(c2ccc(F)cc2)N(C)C)n(C)n1 (centres undefined)    -3.97
2) CCc1cc(O)n2nc(C3CCN(C(=O)c4ccccn4)CC3)cc2n1    2.29
3) CC(C)n1c(=O)c2sccc2n(CC(=O)Nc2cccc(Cl)c2)c1=O    8.93

Please turn your attention to the following entry.
So for Cn1c(=O)[nH]c2cc(C(=O)OCCCn3ccccc3=O)ccc21 , the logged cytotoxicity at 10 µM turned out to be 1.34
